System: SW-620 colon
Assay: NCI-60 one-dose screen, 48 h (100 = growth as untreated, 0 = no growth, -100 = all killed)
Settings: 10 µM unless noted
Compounds without any hit were thinned out: in the full panel of roughly 83,000, 20% have a hit.
Label fulfilled when growth is strictly below 60%; otherwise label not fulfilled.

Check if growth falls below 60% for COC(=O)/C=C1\SC(=Nc2cccc(OC)c2)N(CCc2c[nH]c3ccccc23)C1=O .
not fulfilled

Hello, I'm reviewing records and need to know if growth of C#C[C@@]1(O)[C@@H](CO)O[C@@H](n2cc(Br)c3c(N)ncnc32)[C@@H]1O is below 60%. Could you check?
fulfilled

Confirm or reject: growth of S=C(Nc1ccccc1)c1ccccn1 lies strictly below 60%
not fulfilled

growth under 60%? Item: O=C(Nc1cccc(-c2cccc(F)c2)c1)C1CCN(Cc2cccc3cccnc23)CC1
fulfilled

Problem: For the compound COc1ccc(Cl)c([N+](=O)[O-])c1 , is growth under 60%?
not fulfilled

Does this compound meet the criterion growth < 60%? C#C[C@@]1(O)[C@@H](CO)O[C@@H](n2ccc3c(N)ncnc32)[C@@H]1O
fulfilled

Please determine if O=C(Nc1nc(-c2ccccc2Cl)cs1)c1cc(-c2ccc(Br)cc2)nc2ccccc12 is below 60% in terms of growth.
fulfilled

Consider the compound O=C(O)c1cn(C2CC2)c2cc(N3CCN(C(=O)CSc4nnc(-c5ccc(Cl)cc5)n4-c4ccccc4)CC3)c(F)cc2c1=O . Is its growth strictly less than 60%?
not fulfilled

Quick check: does CCCCC1=c2c([nH]c3ccc(OC)cc23)=NC2C=CC=NC12 (stereo not given) have growth under 60%?
not fulfilled

Given the entry Cc1c(Cl)cccc1NC(=O)c1sc2nc3c(cc2c1N)CCCCCC3 , would its reported growth be below 60%?
fulfilled

###

Task for the reader: assign each of the following compounds its reported growth.
Tested on: A549/ATCC NSCLC
Test: NCI-60 one-dose screen, 48 h (100 = growth as untreated, 0 = no growth, -100 = all killed)
Conditions: 10 µM unless noted
The panel holds about 83,000 compounds, 20% with a hit somewhere; the sample as a whole holds those more often. Active and inactive are the calls of the source. How the source made its calls: active means growth percent below 10; inactive means the rest.

Return reported growth; argument: COc1cc(-c2csc(NC(=O)Nc3ccc(C(F)(F)F)cc3)n2)cc(OC)c1OC
5.16% (active)

So what does the record say about growth for [2H]c1nc(Nc2ncc3cc(C(=O)N(C)C)n(C4CCCC4)c3n2)c([2H])c([2H])c1N1C([2H])([2H])C([2H])([2H])NC([2H])([2H])C1([2H])[2H] ?
45% (inactive)

# input compound: COc1ccc(/C(=N\O)c2cc(C)c(OC)c(C)c2)cc1O ; wanted: its growth
22.2% (inactive)

Would you kindly share the measured growth for N#Cc1nc(-c2ccccc2)oc1S(=O)(=O)NCC(c1ccc(Cl)cc1)N1CCCCC1 (stereo not given) ?
89.2% (inactive)

Entry CCOC(=O)c1c(C)nc2c(c1N)/C(=C/c1ccc[nH]1)C(=O)N2Cc1ccc(C(F)(F)F)cc1 has what growth?
48.9% (inactive)

Fill in: growth of Cc1c(Cl)cccc1NC(=O)c1sc2nc3c(cc2c1N)CCCCC3 is ___
34.5% (inactive)

Consider the compound CC(=O)OC[C@]12CC[C@@H](c3cn(Cc4ccc(Cn5cc([C@@H]6CC[C@]7(COC(C)=O)CC[C@]8(C)[C@H](CC[C@@H]9[C@@]%10(C)CC[C@H](OC(C)=O)C(C)(C)[C@@H]%10CC[C@]98C)[C@@H]67)nn5)cc4)nn3)[C@@H]1[C@H]1CC[C@@H]3[C@@]4(C)CC[C@H](OC(C)=O)C(C)(C)[C@@H]4CC[C@@]3(C)[C@]1(C)CC2 and give its measured growth.
93.5% (inactive)

Which growth value is on record for COC(=O)/C=C1\SC(=Nc2cccc(Cl)c2)N(CCc2c[nH]c3ccccc23)C1=O ?
48% (inactive)

Any idea what its growth is? The compound is CN(C)CCCn1c2c(c3cc(-c4cccc(S(N)(=O)=O)c4)ccc3c1=O)C(=O)c1ccccc1-2
64.7% (inactive)

Sample COc1ccc2nc(-c3ccc(Cl)cc3)cc(C(=O)N3N=C(c4ccc(N)cc4)CC3c3ccccc3)c2c1 (stereo not given) — what was its growth?
46.9% (inactive)

So what does the record say about growth for Nc1c(C(=O)Nc2ccccn2)sc2nc3c(cc12)CCCC3 ?
46.4% (inactive)

I would be grateful if you could share the reported growth for Cc1cc(Nc2nc(SCc3ccc(C(=O)Nc4ccc(F)cc4N)cc3)nn3cccc23)n[nH]1 .
30.8% (inactive)

Reported growth for COC(=O)/C=C1\SC(=Nc2cccc(OC)c2)N(CCc2c[nH]c3ccccc23)C1=O : what is it?
61.4% (inactive)

Given the entry CCOCc1nc2ccccc2c(=O)[nH]1 , report its measured growth.
100% (inactive)

Looking for the measured growth of c1ccc(-c2n(Cc3ccc4ccccc4n3)cc[n+]2Cc2ccc3ccccc3c2)cc1 , can you help?
45.3% (inactive)

Please look up its growth: Cc1cc(NC(=O)CNc2nc(Oc3ccc(F)cc3)nc(-c3ccc(F)cc3)n2)ccc1Cl
87.1% (inactive)

Any idea what growth was measured for C#CCOC(=O)[C@]1(C)CCC[C@]2(C)[C@H]3C[C@H]4C(C(C)C)=C[C@]3(CC[C@H]21)[C@@H]1C(=O)CCC(=O)[C@@H]14 ?
76.9% (inactive)

# query: growth of entry Cc1nc2sc(C(=O)Nc3ccccc3Cl)c(N)c2cc1C(C)O (stereo not given)
75.6% (inactive)

Consider the compound shown here: Cc1nnc(/N=C2\NC(=O)/C(=C/c3ccsc3)S2)s1 What is its recorded growth?
100% (inactive)

Record request: growth value, item CCCn1c2cc(OCc3cn(-c4ccc(Br)cc4)nn3)ccc2c2ccnc(C)c21
53.7% (inactive)

Which growth is listed for CN(C)C1=NCCN1 ?
90% (inactive)

So what does the record say about growth for COc1cc(C(C)c2ccc3c(ccn3C)c2)cc(OC)c1OC (stereo not given) ?
16.3% (inactive)

Can you look up the measured growth of C=C(C)[C@@H]1CC[C@]2(C(=O)O)CC[C@]3(C)[C@H](CC[C@@H]4[C@@]5(C)C[C@@H](CC#Cc6ccc(Cl)cc6)C(=O)C(C)(C)[C@@H]5CC[C@]43C)[C@@H]12 for me?
31.3% (inactive)

# get_value(readout='growth', item= CCOC(=O)c1c(C)nc2c(c1N)/C(=C/c1cccs1)C(=O)N2Cc1ccccc1 )
77.9% (inactive)

So what does the record say about growth for CN(C)CCCn1c2c(c3cc(-c4ccco4)ccc3c1=O)C(=O)c1ccccc1-2 ?
67.7% (inactive)

So what's the measured growth for this one? N#Cc1c(-c2ccc(F)cc2)nc(N/N=C/c2c[nH]c3ccccc23)nc1N1CCOCC1
47.1% (inactive)

Dear colleague, I am looking for the recorded growth of the following compound: C#C[C@@]1(O)[C@@H](CO)O[C@@H](n2cc(-c3ccco3)c3c(N)ncnc32)[C@@H]1O
68.5% (inactive)

Need growth of CCCCc1n(Cc2ccc3ccccc3c2)c2ccccc2[n+]1Cc1ccc2ccccc2c1 , thanks.
-72.3% (active)

Give the measured growth of CCOC(=O)NC(Cc1ccccc1)c1ccccc1 (stereo not given) .
99.1% (inactive)

Request the reported growth associated with O=C(/C(=C/c1ccc([N+](=O)[O-])cc1)SCc1ccc(Cl)cc1)c1ccc(F)cc1
80.5% (inactive)

Need growth of C=C(C)[C@@H]1CC[C@]2(C(=O)O)CC[C@]3(C)[C@H](CC[C@@H]4[C@@]5(C)C[C@@H](CC#Cc6ccccc6)C(=O)C(C)(C)[C@@H]5CC[C@]43C)[C@@H]12 , thanks.
25.3% (inactive)

# get_value(readout='growth', item= C/C(=N/Nc1nc2ccccc2n1C)c1ccccn1 )
4.01% (active)

Name the recorded growth for CCN1CCN(c2ccc(NC(=O)Nc3nc4ccc(-c5ccccc5OC)cc4s3)cc2)CC1 .
-77.1% (active)

Form field: reported growth of Cc1cc(Cl)cc(CN(Cc2ccccc2)Cc2c(O)ccc3ccccc23)c1O
98% (inactive)

Given the entry C#C[C@@]1(O)[C@@H](CO)O[C@@H](n2cc(I)c3c(N)ncnc32)[C@@H]1O , report its measured growth.
-56.5% (active)

###

Test system: SR leukemia
Test: NCI-60 one-dose screen, 48 h (100 = growth as untreated, 0 = no growth, -100 = all killed)
Conditions: 10 µM unless noted
About 83,000 compounds went through this panel and 20% of them were active in at least one assay; those are over-represented in the sample as a whole.
REPORTED_METRIC: growth (%)
Field: numeric (%). Do not append units.

Any idea what growth was measured for N#Cc1nc(-c2ccccc2)oc1S(=O)(=O)NCC(c1ccc(Cl)cc1)N1CCCCC1 (stereo not given) ?
12.2

What value of measured growth is listed for CC[C@H](Nc1ncnc2nc[nH]c12)c1nc2cccc(CC(=O)c3ccc(C(=O)NO)cc3)c2c(=O)n1-c1ccccc1 ?
67.6

Sample COC(=O)/C=C/c1cc(OC(C)=O)c2c(c1)C(C(=O)OC)C(c1ccc(OC(C)=O)c(OC(C)=O)c1)O2 (stereo not given) — what was its growth?
8.61

What value of growth has been recorded for this entry: Cc1cccc(C)c1NC(=O)CN(CC(C)C)CC(O)COc1ccccc1 (stereo not given)
92.1

Any idea what growth was measured for COc1ccc(/C=C/C(=O)/C=C(/C=C/c2ccc(OC)c(OC)c2)OB(F)F)cc1OC ?
0.197

// returns reported growth for input CC1=C(CCCOC(=O)NCCCl)C2=C(C)C3(CC3)[C@@](C)(O)C(=O)C2=C1
82.9

Return reported growth; argument: N#CCNc1ccc(C(=O)O)cc1
99.2

Item under review: O=C(/C(=C/c1ccc([N+](=O)[O-])cc1)SCc1ccccc1)c1ccc(Cl)cc1 . Reported growth?
-1.55

Item O=C1NC(SCc2ccc(F)cc2)=N/C1=C/c1cccc(OCc2ccc(Cl)cc2)c1 has what recorded growth?
20.6

Give its growth value. Item: N#Cc1c(-c2ccc(F)cc2)nc(N/N=C/c2cccc(O)c2)nc1N1CCOCC1
2.93

Can you share its growth? I mean this compound: COc1cc(C(=O)Nc2cc(O)c(C/C=C(\C)CCC=C(C)C)c(O)c2)cc2c1O[C@]1(C)CC[C@@H](O)C(C)(C)[C@H]1C2
1.41

So what does the record say about growth for CCOCc1cc(C(C)(C)C)ccc1O ?
88.7

Requested read-out: growth. Entry: O=c1[nH]c2ccccc2cc1-c1nc2ccc(Cl)cc2[nH]1
8.43

Entry CCN(CC)c1ccc2c(c1)Oc1nc(N)c(C#N)c(N)c1C2Sc1ccc(OC)cc1 (stereo not given) has what growth?
-9.3

Tell me the measured growth of CCCCCCCCCCCCCC1=NCC[N+]1(CCO)Cc1ccccc1 (stereo not given) , please.
-50.7

Which growth reading was recorded for the compound [2H]c1cc2c(c([2H])c1F)/C(=C/c1[nH]c(C)c(C(=O)NCCN(CC)CC)c1C)C(=O)N2 ?
0.469

Value lookup for growth; key = O=C1NN(c2ccccc2)C(c2ccc(Cl)cc2)N2CCC[C@H]12 (stereo not given in full)
111

Look up growth for this compound: COc1cc(C(=O)N2CCN(c3ccccc3OC)CC2)c(NC(=O)c2cnccn2)cc1OCc1ccccc1
60.7

Which value of growth has been reported for C=C1C(=O)O[C@H]2[C@H]1CC/C(COC(=O)CCCCCCC(=O)OC/C1=C/CC[C@@]3(C)O[C@H]3[C@H]3OC(=O)C(=C)[C@@H]3CC1)=C\CC[C@@]1(C)O[C@@H]21 in the records?
-2.74

Could you tell me which growth is on file for COc1ccc(-n2cc(-c3ccc(Cl)c(Cl)c3)[nH]c2=O)cc1OC ?
40.1

The measurements presented in this section are drawn from PubChem BioAssay (NCI).
